Reported melting point by item:
Quick reminder: number only, in °C, skip the unit.

// worked examples, melting point included
Line Notation | melting point / °C
O=C(/C=C/c1sc(Cl)nc1Cl)c1cccc(Cl)c1 | 88
O=C(/C=C/c1sc(Cl)nc1Cl)c1cc(F)cc(F)c1 | 109
O=C(/C=C/c1sc(Cl)nc1Cl)c1ccc(Cl)c(Cl)c1 | 106
O=C(/C=C/c1sc(Cl)nc1Cl)c1ccc(F)cc1F | 134
O=C(/C=C/c1sc(Cl)nc1Cl)c1cccnc1 | 162
O=C(/C=C/c1sc(Cl)nc1Cl)c1nccs1 | 127
O=C(/C=C/c1sc(Cl)nc1Cl)c1cc(Cl)ccc1Cl | 84
O=C(/C=C/c1sc(Cl)nc1Cl)c1cccc(Cl)c1Cl | 89

Reported melting point for O=C(/C=C/c1sc(Cl)nc1Cl)c1ccc(F)c(F)c1 was 145

Reported melting point for O=C(/C=C/c1sc(Cl)nc1Cl)c1c(F)cccc1F was 141

Reported melting point for O=C(/C=C/c1sc(Cl)nc1Cl)c1ccc(Cl)cc1 was 104

Reported melting point for O=C(/C=C/c1sc(Cl)nc1Cl)c1ccccc1Cl was 80

Reported melting point for O=C(/C=C/c1sc(Cl)nc1Cl)c1ccncc1 was 177

Reported melting point for O=C(/C=C/c1sc(Cl)nc1Cl)c1ccccc1F was 91

Reported melting point for O=C(/C=C/c1sc(Cl)nc1Cl)c1ccccn1 was 156

Reported melting point for O=C(/C=C/c1sc(Cl)nc1Cl)c1ccc(F)cc1 was 126

Reported melting point for O=C(/C=C/c1sc(Cl)nc1Cl)c1cc(F)ccc1F was 129

Reported melting point for O=C(/C=C/c1sc(Cl)nc1Cl)c1cccc(F)c1 was 112

---

- Test system: Mycobacterium tuberculosis H37Rv strain
- Experiment Notes: Antitubercular activity, broth dilution MIC
- Format: cell-based
- Protocol Conditions: Mycobacterium tuberculosis, H37RV, 504 h; broth dilution, 21 days at 37 °C; mean of three independent experiments; converted from µg/mL; read-out: Mtb (H37Rv Strain) (MIC in µM)
Property Label: MIC
Number first, unit second.

Reported MIC for O=C(/C=C/c1sc(Cl)nc1Cl)c1cccc(Cl)c1Cl was 142 µM

Reported MIC for O=C(/C=C/c1sc(Cl)nc1Cl)c1nccs1 was 343 µM

Reported MIC for O=C(/C=C/c1sc(Cl)nc1Cl)c1ccccc1Cl was 78.5 µM

---

- System: Mycobacterium tuberculosis H37Rv strain
- Experiment Notes: Antitubercular activity, broth dilution MIC
- Format: cell-based
- Protocol Conditions: Mycobacterium tuberculosis, H37RV, 504 h; broth dilution, 21 days at 37 °C; mean of three independent experiments; converted from µg/mL; read-out: Mtb (H37Rv Strain) (MIC in µM)
Reported log10 of MIC by item:
Please note: log10 values; quantity MIC; unit µM.

// worked examples, log10 of MIC included
Molecule | log10 of MIC
O=C(/C=C/c1sc(Cl)nc1Cl)c1cccc(Cl)c1 | 2.50
O=C(/C=C/c1sc(Cl)nc1Cl)c1ccccc1F | 1.32

Reported log10 of MIC for O=C(/C=C/c1sc(Cl)nc1Cl)c1ccncc1 was 2.55

Reported log10 of MIC for O=C(/C=C/c1sc(Cl)nc1Cl)c1cccc(F)c1 was 2.22

Reported log10 of MIC for O=C(/C=C/c1sc(Cl)nc1Cl)c1ccc(Cl)c(Cl)c1 was 2.15

Reported log10 of MIC for O=C(/C=C/c1sc(Cl)nc1Cl)c1c(F)cccc1F was 0.99

Reported log10 of MIC for O=C(/C=C/c1sc(Cl)nc1Cl)c1cc(Cl)ccc1Cl was 2.15

Reported log10 of MIC for O=C(/C=C/c1sc(Cl)nc1Cl)c1cc(F)cc(F)c1 was 2.19

Reported log10 of MIC for NC(=O)c1cnccn1 [Pyrazinamide, reference compound] was 1.40

Reported log10 of MIC for O=C(/C=C/c1sc(Cl)nc1Cl)c1ccc(F)cc1F was 0.39

Reported log10 of MIC for O=C(/C=C/c1sc(Cl)nc1Cl)c1cccnc1 was 2.85

Reported log10 of MIC for O=C(/C=C/c1sc(Cl)nc1Cl)c1ccccn1 was 2.55

Reported log10 of MIC for O=C(/C=C/c1sc(Cl)nc1Cl)c1cc(F)ccc1F was 1.59

Reported log10 of MIC for O=C(/C=C/c1sc(Cl)nc1Cl)c1ccc(Cl)cc1 was 1.89

Reported log10 of MIC for O=C(/C=C/c1sc(Cl)nc1Cl)c1ccc(F)c(F)c1 was 1.59

Reported log10 of MIC for O=C(/C=C/c1sc(Cl)nc1Cl)c1ccc(F)cc1 was 1.32
